- test.target: RIPK2 (human) (UniProt O43353)
- Sequence (O43353 whole entry, looked up): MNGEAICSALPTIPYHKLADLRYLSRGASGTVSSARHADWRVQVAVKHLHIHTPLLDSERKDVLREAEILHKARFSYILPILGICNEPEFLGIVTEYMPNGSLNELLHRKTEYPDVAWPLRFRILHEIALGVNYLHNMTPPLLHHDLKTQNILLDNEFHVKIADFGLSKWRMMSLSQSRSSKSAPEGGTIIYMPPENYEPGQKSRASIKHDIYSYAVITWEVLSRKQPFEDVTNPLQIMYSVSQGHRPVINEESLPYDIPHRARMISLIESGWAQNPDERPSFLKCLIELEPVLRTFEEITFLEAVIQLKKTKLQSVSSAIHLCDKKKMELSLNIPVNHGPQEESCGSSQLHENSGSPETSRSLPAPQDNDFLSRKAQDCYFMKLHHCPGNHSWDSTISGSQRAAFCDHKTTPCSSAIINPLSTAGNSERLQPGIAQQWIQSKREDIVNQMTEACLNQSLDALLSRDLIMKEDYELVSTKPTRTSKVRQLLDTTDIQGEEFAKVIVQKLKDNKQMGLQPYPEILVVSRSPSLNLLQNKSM
- measurement.notes: KINOMEscan competition binding
- condition.notes: compound 1.0 µM
measured.endpoint: kinase still bound, per cent of control (%)
Respond with the bare value in %.

Give the measured kinase still bound, per cent of control of CN(C)C/C=C/C(=O)Nc1cccc(C(=O)Nc2ccc(Nc3nccc(/C(C#N)=C4\Nc5ccccc5S4)n3)cc2)c1 .
100

Do the same for CN(C)C/C=C/C(=O)Nc1cccc(C(=O)Nc2ccc(Nc3nccc(-c4cccnc4)n3)cc2)c1 please
55

What about this compound? Cc1cc(NC(=O)c2cccc(NC(=O)/C=C/CN(C)C)c2)ccc1Nc1nccc(-c2cccnc2)n1
99

Then what about the compound CN(C)C/C=C/C(=O)Nc1cccc(C(=O)Nc2ccc(Nc3nccc(-c4c(-c5ccccc5)nn5ccccc45)n3)cc2)c1 ?
12
